- test_target: T1, Cc78 (Caulobacter crescentus NA1000, UniProt B8GW92 1-78, del79-82)
- T1 sequence: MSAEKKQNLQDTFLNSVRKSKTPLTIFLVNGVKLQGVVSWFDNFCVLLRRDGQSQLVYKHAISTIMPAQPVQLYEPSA
- procedure_text: EMSA; Hill n 1.4; EMSA: 34 mM Tris-HCl pH 7.5, 50 mM NaCl, 50 mM KCl, 50 mM NH4Cl, 11.4 mM EDTA, 12% glycerol, 30 C, 30 min, ~1 nM 32P-RNA, Kd in Hfq6; anisotropy: 10 mM Tris-HCl
- condition_summary: protein: recombinant; tags: untagged after self-cleaved intein; chain copies: 6; label: 32P; stem-loops
measurement_kind: pKd
Keep in mind that pKd stands for -log10 of concentration in molar terms.

Please fill in: pKd reported for ChvR (structured_RNA) RNA: GGCGGGGCCUACAUGUCGCGCAAGUCUCCGGAGGGCCAUUCCGAGGCGGGGCCCGCUCCAGCGUCCUCAUUGGAGCGGGCGUCU = 6.59
